Target: CYP2C9 (Homo sapiens, UniProt P11712)
Sequence (P11712 whole entry): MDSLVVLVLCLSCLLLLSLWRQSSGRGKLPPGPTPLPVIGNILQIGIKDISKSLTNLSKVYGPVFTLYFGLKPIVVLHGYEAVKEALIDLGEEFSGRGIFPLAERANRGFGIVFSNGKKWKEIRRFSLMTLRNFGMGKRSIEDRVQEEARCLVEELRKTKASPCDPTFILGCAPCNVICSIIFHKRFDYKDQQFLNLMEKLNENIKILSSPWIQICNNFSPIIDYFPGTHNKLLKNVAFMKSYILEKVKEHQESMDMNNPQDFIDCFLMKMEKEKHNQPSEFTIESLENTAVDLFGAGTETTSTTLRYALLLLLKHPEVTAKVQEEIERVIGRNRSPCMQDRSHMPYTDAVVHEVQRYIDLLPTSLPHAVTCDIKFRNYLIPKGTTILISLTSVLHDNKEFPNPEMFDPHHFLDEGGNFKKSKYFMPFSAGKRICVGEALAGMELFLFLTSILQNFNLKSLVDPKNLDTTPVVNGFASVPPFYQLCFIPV
Test: Inhibition of CYP2C9 in human liver microsomes at 10 uM measured after 20 mins in presence of NADPH by LC/MS/MS analysis relative to control
Format: ADME
parameter-measured: inhibition at 20 min, 10 µM (%)
Give just the numeric value; % need not be written.

smiles-text: CC1(C)Oc2cc(C#Cc3cc(Cl)ccc3F)ccc2-c2[nH]c(-c3c(F)cccc3Cl)nc21
readout-number: 33.3

Looking up CC1(C)Oc2cc(-c3cccc(OC(F)(F)F)c3)ccc2-c2[nH]c(-c3c(F)cccc3Cl)nc21 , I found its inhibition at 20 min, 10 µM recorded as 45.4

Looking up CC1(C)Oc2cc(C#Cc3ccccc3C(F)(F)F)ccc2-c2nc(-c3c(C#N)cccc3C#N)[nH]c21 , I found its inhibition at 20 min, 10 µM recorded as 32

Looking up CC1(C)Oc2cc(-c3cccc(C(F)(F)F)c3)ccc2-c2[nH]c(-c3c(F)cccc3Cl)nc21 , I found its inhibition at 20 min, 10 µM recorded as 35

---

Target: Prostaglandin E synthase (Homo sapiens)
Sequence (O14684 whole entry): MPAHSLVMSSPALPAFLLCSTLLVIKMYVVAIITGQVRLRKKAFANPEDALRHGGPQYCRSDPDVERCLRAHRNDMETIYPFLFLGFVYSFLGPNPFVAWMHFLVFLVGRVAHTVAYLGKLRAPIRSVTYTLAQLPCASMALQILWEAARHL
Assay: Inhibition of recombinant human mPGES-1 expressed in CHO cells assessed as reduction in PGE2 formation using PGH2 a substrate preincubated for 10 mins followed by substrate addition measured after 1 min
Format: cell-based
parameter-measured: log10 of IC50 (log10 of the value in nM)
Quick note: numbers are log10 of IC50, with nM as the unit.

smiles-text: CC1(C)Oc2cc(C#Cc3ccc(C(F)(F)F)cc3Cl)ccc2-c2nc(-c3c(F)cncc3Cl)[nH]c21
system: Prostaglandin E synthase (Homo sapiens)
parameter-measured: log10 of IC50
readout-number: 1.87

smiles-text: CC1(C)Oc2cc(C#Cc3ccncc3F)ccc2-c2nc(-c3c(F)cccc3Cl)[nH]c21
system: Prostaglandin E synthase (Homo sapiens)
parameter-measured: log10 of IC50
readout-number: 2.81

smiles-text: CC1(C)Oc2cc(C#Cc3ccccc3OC(F)(F)F)ccc2-c2[nH]c(-c3c(F)cccc3Cl)nc21
system: Prostaglandin E synthase (Homo sapiens)
parameter-measured: log10 of IC50
readout-number: 1.30

smiles-text: CC1(C)Oc2cc(C#Cc3c(F)cccc3C(F)(F)F)ccc2-c2[nH]c(-c3c(F)cccc3Cl)nc21
system: Prostaglandin E synthase (Homo sapiens)
parameter-measured: log10 of IC50
readout-number: 1.09

smiles-text: CC1(C)Oc2cc(C#Cc3ccccc3OC(F)(F)F)ccc2-c2[nH]c(-c3c(C#N)cccc3C#N)nc21
system: Prostaglandin E synthase (Homo sapiens)
parameter-measured: log10 of IC50
readout-number: 1.07

smiles-text: CC1(C)Oc2cc(C#Cc3ccc(Cl)cc3)ccc2-c2nc(-c3c(F)cccc3Cl)[nH]c21
system: Prostaglandin E synthase (Homo sapiens)
parameter-measured: log10 of IC50
readout-number: 1.58

smiles-text: CC1(C)Oc2cc(C#Cc3ccccc3C(F)(F)F)ccc2-c2nc(-c3c(C#N)cccc3C#N)[nH]c21
system: Prostaglandin E synthase (Homo sapiens)
parameter-measured: log10 of IC50
readout-number: 1.20

smiles-text: CC1(C)Oc2cc(C#Cc3cccc(C(F)(F)F)c3)ccc2-c2nc(-c3c(F)cccc3Cl)[nH]c21
system: Prostaglandin E synthase (Homo sapiens)
parameter-measured: log10 of IC50
readout-number: 1.47

Looking up CC1(C)Oc2cc(-c3ccc(C(F)(F)F)cc3)ccc2-c2[nH]c(-c3c(F)cccc3Cl)nc21 , I found its log10 of IC50 recorded as 2.28

Looking up CC1(C)Oc2cc(C#Cc3c(Cl)cccc3Cl)ccc2-c2nc(-c3c(F)cccc3Cl)[nH]c21 , I found its log10 of IC50 recorded as 1.05

Looking up CC1(C)Oc2cc(C#Cc3ccc(C(F)(F)F)cc3Cl)ccc2-c2nc(-c3c(F)cccc3Cl)[nH]c21 , I found its log10 of IC50 recorded as 1.45

Looking up CC1(C)Oc2cc(C#Cc3cc(Cl)ccc3F)ccc2-c2[nH]c(-c3c(F)cccc3Cl)nc21 , I found its log10 of IC50 recorded as 1.56

Looking up CC1(C)Oc2cc(C#Cc3cc(Cl)ccc3Cl)ccc2-c2[nH]c(-c3c(F)cccc3Cl)nc21 , I found its log10 of IC50 recorded as 0.97

Looking up CC1(C)Oc2cc(C#Cc3cncnc3)ccc2-c2nc(-c3c(F)cccc3Cl)[nH]c21 , I found its log10 of IC50 recorded as 2.90

Looking up CC1(C)Oc2cc(C#Cc3ccccc3C(F)(F)F)ccc2-c2nc(-c3c(Cl)cncc3Cl)[nH]c21 , I found its log10 of IC50 recorded as 1.91

Looking up CC1(C)Oc2cc(C#Cc3ccc(C(F)(F)F)cc3)ccc2-c2[nH]c(-c3c(F)cccc3Cl)nc21 , I found its log10 of IC50 recorded as 1.79

---

Experiment: Tmax in Guinea pig at 100 mg/kg, po
Assay type: ADME, organism-based, Cavia porcellus
Conditions: in vivo
parameter-measured: Tmax (h)
Give just the numeric value; h need not be written.

Looking up CC1(C)Oc2cc(-c3cccc(OC(F)(F)F)c3)ccc2-c2[nH]c(-c3c(F)cccc3Cl)nc21 , I found its Tmax recorded as 24

---

Assay: Plasma concentration in Dunkin Hartley guinea pig model of LPS-induced thermal hyperalgesia pain at 200 mg/kg, po qd measured 7 hrs post dose by LC/MS/MS analysis
Format: ADME, organism-based, Cavia porcellus
parameter-measured: concentration at 7 h

Looking up CC1(C)Oc2cc(-c3cccc(OC(F)(F)F)c3)ccc2-c2[nH]c(-c3c(F)cccc3Cl)nc21 , I found its concentration at 7 h recorded as 7.5 to 7.54 µM

---

Molecular target: UniProtKB P33261
Sequence (P33261 whole entry): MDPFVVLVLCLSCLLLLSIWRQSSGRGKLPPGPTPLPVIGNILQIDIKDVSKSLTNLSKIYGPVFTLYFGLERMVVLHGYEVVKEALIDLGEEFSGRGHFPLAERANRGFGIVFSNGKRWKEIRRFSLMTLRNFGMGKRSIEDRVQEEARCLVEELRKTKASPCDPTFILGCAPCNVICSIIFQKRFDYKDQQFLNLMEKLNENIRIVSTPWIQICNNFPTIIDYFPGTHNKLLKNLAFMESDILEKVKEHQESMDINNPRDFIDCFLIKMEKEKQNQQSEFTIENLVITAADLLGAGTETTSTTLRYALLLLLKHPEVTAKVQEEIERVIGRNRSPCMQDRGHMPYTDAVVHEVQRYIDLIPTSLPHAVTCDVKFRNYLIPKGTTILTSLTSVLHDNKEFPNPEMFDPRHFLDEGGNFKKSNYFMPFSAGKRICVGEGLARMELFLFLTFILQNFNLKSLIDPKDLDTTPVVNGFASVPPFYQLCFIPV
Experiment: Inhibition of CYP2C19 in human liver microsomes at 10 uM measured after 40 mins in presence of NADPH by LC/MS/MS analysis relative to control
Type: ADME
parameter-measured: inhibition at 40 min, 10 µM (%)
Give just the numeric value; % need not be written.

Looking up CC1(C)Oc2cc(-c3cccc(OC(F)(F)F)c3)ccc2-c2[nH]c(-c3c(F)cccc3Cl)nc21 , I found its inhibition at 40 min, 10 µM recorded as 27.2

---

Experiment: Protein binding in human plasma at 10 uM after 5 to 10 mins by LC-MS/SM analsysis
Format: ADME, cell-free
Conditions: read-out: PPB
Here the recorded fraction unbound at 10 µM is given for each entry.

smiles-text: CC1(C)Oc2cc(C#Cc3cc(Cl)ccc3F)ccc2-c2[nH]c(-c3c(F)cccc3Cl)nc21
fraction unbound at 10 µM: < 0.045

Looking up CC1(C)Oc2cc(-c3cccc(OC(F)(F)F)c3)ccc2-c2[nH]c(-c3c(F)cccc3Cl)nc21 , I found its fraction unbound at 10 µM recorded as < 0.005

---

Test: Oral bioavailability in Sprague-Dawley rat at 10 mg/kg
Assay type: ADME, organism-based
Details: in vivo
parameter-measured: bioavailability
Your reply should be a number followed by the unit it is expressed in.

smiles-text: CC1(C)Oc2cc(C#Cc3cc(Cl)ccc3F)ccc2-c2[nH]c(-c3c(F)cccc3Cl)nc21
result: 85%

As a next step, examine the compound that follows.
Looking up CC1(C)Oc2cc(-c3cccc(OC(F)(F)F)c3)ccc2-c2[nH]c(-c3c(F)cccc3Cl)nc21 , I found its bioavailability recorded as 33%

---

Assay: Plasma concentration in Dunkin Hartley guinea pig model of LPS-induced thermal hyperalgesia pain at 100 mg/kg, po qd measured 7 hrs post dose by LC/MS/MS analysis
Type: ADME, organism-based, Cavia porcellus
parameter-measured: concentration at 7 h (µM)
Give just the numeric value; µM need not be written.

Looking up CC1(C)Oc2cc(C#Cc3cc(Cl)ccc3F)ccc2-c2[nH]c(-c3c(F)cccc3Cl)nc21 , I found its concentration at 7 h recorded as 13.8

---

Biological target: CYP1A2 (Homo sapiens)
Sequence (P05177 whole entry): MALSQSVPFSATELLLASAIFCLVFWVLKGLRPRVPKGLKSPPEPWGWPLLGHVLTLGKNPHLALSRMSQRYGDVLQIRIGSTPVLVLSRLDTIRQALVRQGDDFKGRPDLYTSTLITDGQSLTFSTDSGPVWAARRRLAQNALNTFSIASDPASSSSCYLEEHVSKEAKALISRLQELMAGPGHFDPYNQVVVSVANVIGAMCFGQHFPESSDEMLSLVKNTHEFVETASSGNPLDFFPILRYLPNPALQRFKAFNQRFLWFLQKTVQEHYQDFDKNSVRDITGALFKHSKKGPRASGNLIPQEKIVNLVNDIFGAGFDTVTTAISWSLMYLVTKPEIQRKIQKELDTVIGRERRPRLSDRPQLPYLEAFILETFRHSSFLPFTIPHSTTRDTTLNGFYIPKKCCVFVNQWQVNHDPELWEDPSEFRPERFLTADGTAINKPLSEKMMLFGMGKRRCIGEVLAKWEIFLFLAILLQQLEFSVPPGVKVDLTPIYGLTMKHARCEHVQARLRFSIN
Experiment: Inhibition of CYP1A2 in human liver microsomes at 10 uM measured after 20 mins in presence of NADPH by LC/MS/MS analysis relative to control
Type: ADME
Details: liver microsomes
parameter-measured: inhibition at 20 min, 10 µM (%)
Give just the numeric value; % need not be written.

Looking up CC1(C)Oc2cc(C#Cc3cc(Cl)ccc3F)ccc2-c2[nH]c(-c3c(F)cccc3Cl)nc21 , I found its inhibition at 20 min, 10 µM recorded as 33.9
